Assay: CellTox Green Cytotoxicity Assay in uninfected CRFK cells
Format: cell-based
Conditions: cat (feline), 72 hour incubation
MEASURED QUANTITY: CC50 at 72 h

(Q) Using the record for N#C[C@@]1(c2ccc3c(N)ncnn23)O[C@H](CO)[C@@H](O)[C@H]1O [Compound 1] , report its CC50 at 72 h.
(A) > 100 µM
